target: CYP1A2r (Rattus norvegicus); assay: Fluorescence-based CYP assay, recombinant CYP1A2r, substrate EFC
Sequence (P04799 whole entry): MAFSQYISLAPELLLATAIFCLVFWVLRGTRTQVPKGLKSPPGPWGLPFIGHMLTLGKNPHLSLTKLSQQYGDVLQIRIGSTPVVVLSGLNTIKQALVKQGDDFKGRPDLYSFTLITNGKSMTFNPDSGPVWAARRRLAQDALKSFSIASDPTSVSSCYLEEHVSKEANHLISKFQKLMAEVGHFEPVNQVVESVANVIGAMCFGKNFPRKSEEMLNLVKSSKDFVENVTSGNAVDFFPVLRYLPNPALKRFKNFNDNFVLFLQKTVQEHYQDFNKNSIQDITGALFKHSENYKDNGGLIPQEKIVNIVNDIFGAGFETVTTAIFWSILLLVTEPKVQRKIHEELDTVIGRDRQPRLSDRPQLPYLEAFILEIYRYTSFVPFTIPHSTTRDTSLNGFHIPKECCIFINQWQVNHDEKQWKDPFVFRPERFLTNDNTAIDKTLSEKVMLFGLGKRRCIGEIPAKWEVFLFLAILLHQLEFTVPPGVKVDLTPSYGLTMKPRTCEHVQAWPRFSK
pIC50: −log10 of the molar value.

{"molecule": "Clc1ccccc1C(c1ccccc1)(c1ccccc1)n1cccn1 [TRAM-34]", "pIC50": "< 4.10"}

* * *

target: CYP3A4 (Homo sapiens, UniProt P08684); test: Fluorescence-based CYP3A4 assay with DBF as substrate; format: in vitro ADME
Sequence (P08684 whole entry): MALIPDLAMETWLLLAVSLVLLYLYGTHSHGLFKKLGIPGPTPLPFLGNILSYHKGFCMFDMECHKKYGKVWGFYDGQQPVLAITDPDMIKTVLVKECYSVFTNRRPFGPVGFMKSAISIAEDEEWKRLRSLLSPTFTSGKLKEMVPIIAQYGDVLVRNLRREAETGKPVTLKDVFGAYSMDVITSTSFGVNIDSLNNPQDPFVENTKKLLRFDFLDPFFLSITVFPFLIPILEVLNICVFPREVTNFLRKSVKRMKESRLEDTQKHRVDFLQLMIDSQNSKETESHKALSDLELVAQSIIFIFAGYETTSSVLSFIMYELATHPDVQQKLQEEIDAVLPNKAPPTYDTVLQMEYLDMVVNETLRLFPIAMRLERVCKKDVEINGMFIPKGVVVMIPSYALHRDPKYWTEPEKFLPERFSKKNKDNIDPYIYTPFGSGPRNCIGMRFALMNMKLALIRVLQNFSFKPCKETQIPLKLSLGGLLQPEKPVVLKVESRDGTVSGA

{"sample-smiles": "Clc1ccccc1C(c1ccccc1)(c1ccccc1)n1cccn1", "measured-target": "CYP3A4 (Homo sapiens, UniProt P08684)", "unit-text": "µM", "IC50": 3.6}

* * *

target: CYP3A4 (Homo sapiens, UniProt P08684); test: CYP3A4 assay with LVS as substrate (LC-MS/MS); type: in vitro ADME; details: human, pH 7.4, IC50, formation of 6′β-hydroxy LVS by CYP3A4, substrate LVS 10 µM
measurement-kind: IC50 at 20 min (µM)

{"molecule": "Clc1ccccc1C(c1ccccc1)(c1ccccc1)n1cccn1 [TRAM-34]", "unit-text": "µM", "value-observed": 0.92}

* * *

target: CYP3A4 (Homo sapiens); test: CYP3A4 assay with LVS as substrate (LC-MS/MS); type: in vitro ADME; details: substrate LVS 10 µM; read-out: IC50, formation of 6′-exomethylene LVS by CYP3A4

{"sample-smiles": "Clc1ccccc1C(c1ccccc1)(c1ccccc1)n1cccn1", "measured-target": "CYP3A4 (Homo sapiens)", "IC50": "~1 µM"}

* * *

target: UniProtKB P08684; test: CYP3A4 assay with LVS as substrate (LC-MS/MS); format: in vitro ADME; details: human, pH 7.4, IC50, formation of 6′-exomethylene LVS by CYP3A4, substrate LVS 10 µM
measurement-kind: IC50 at 20 min (nM)

{"compound": "Clc1ccccc1C(c1ccccc1)(c1ccccc1)n1cccn1 [TRAM-34]", "measured-target": "UniProtKB P08684", "value-observed": 640}

* * *

Target: CYP2C6 (Rattus norvegicus)
Sequence (P05178 whole entry): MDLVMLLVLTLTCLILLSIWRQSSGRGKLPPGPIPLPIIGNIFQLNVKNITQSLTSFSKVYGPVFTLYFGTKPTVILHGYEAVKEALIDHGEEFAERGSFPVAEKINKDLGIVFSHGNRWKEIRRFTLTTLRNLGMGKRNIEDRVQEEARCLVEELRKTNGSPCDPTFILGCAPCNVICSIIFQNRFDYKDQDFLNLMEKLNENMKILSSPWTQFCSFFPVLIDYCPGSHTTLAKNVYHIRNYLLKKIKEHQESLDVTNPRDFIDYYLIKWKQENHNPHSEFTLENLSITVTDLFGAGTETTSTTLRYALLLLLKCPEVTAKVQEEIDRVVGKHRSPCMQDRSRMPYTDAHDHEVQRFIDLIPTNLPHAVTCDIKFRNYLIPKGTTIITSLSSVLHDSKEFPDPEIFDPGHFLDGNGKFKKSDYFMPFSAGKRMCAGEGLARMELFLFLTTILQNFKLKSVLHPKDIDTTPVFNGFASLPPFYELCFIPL
Assay: Fluorescence-based CYP assay, recombinant CYP2C6, substrate EFC
Details: recombinant rat CYP2C6, EFC 5 µM
Protocol: These assays were performed by methods similar to those described by VanAlstine and Hough, Stresser et al., Wulff et al., Henderson et al., and Crespi et al., with minor modifications. […] For assays utilizing “low” regenerating systems, product formation was monitored continuously by a Victor3 1420 Multilabel Plate Counter at the designated wavelengths (Table 1). […] Product formation was then measured at the designated wavelengths (Table 1). […]
pIC50: −log10 of the molar value.
measurement-kind: pIC50

{"sample-smiles": "Clc1ccccc1C(c1ccccc1)(c1ccccc1)n1cccn1", "measured-target": "CYP2C6 (Rattus norvegicus)", "measurement-kind": "pIC50", "value-observed": 5.54}

* * *

Biological target: CYP19A1h (Homo sapiens)
Sequence (P11511 1-503): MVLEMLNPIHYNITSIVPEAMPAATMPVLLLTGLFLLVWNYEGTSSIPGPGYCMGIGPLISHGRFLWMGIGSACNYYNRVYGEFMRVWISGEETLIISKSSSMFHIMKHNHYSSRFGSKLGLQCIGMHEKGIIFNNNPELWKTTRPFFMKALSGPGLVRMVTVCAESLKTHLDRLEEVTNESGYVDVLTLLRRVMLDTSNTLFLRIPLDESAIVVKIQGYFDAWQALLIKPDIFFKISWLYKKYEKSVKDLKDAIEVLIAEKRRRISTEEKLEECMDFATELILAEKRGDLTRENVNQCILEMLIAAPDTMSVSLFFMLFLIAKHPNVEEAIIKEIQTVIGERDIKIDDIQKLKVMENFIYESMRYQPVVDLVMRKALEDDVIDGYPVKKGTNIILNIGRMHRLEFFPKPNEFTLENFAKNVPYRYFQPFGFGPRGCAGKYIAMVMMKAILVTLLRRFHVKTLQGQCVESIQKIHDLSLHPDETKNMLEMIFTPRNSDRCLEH
Assay: Fluorescence-based CYP assay, recombinant CYP19A1h, substrate DBF
pIC50: −log10 of the molar value.
measurement-kind: pIC50

{"compound": "Clc1ccccc1C(c1ccccc1)(c1ccccc1)n1cccn1 [TRAM-34]", "value-observed": "< 4.10"}
